Target: T1, human β NGF (human, UniProt P01138 122-241, biotinylated in the TrkA inhibition ELISA (sites not given))
T1 construct: Bought (R&D Systems 256-GF/CF); also called Human NGF; biotinylated human NGF
T1 sequence (P01138 122-241 limits assumed): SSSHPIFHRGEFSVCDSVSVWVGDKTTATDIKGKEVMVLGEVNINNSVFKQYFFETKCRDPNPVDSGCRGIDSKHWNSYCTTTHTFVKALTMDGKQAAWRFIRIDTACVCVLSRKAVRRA
Assay: TrkA inhibition ELISA; biotin-hNGF bound to rat TrkA/Fc; supernatant 5-fold
Protocol: The plates were washed three times with PBS/Tween. The plates were blocked with 200 μl/well of 2% milk in PBS for 1 hour at room temperature. The plates were washed three times as above. […] The absorbance at 450 nm was read on a Spectromax 2E plate reader (Molecular Devices), and the absorbance readings are shown in Table 5 The numerical value indicates binding of biotinylated human β NGF to rat TrkA/Fc chimera.
valueKind: absorbance at 450 nm (OD450)
Number in OD450, nothing else.

Which absorbance at 450 nm is listed for 14A9 hybridoma supernatant (antibody, mouse IgG1, V domains shown, Tested as supernatant of the hybridoma before subcloning; mouse IgG1 kappa; also called ML130-14A9.5B12) VH: EVQLVESGGGAVKPGGSLTLSCAASGFTFSNHYMYWVRQTPEKRLEWVASISDGGAYTFYPDTVKGRFTISRDNVNNNLYLQMRHLKSEDTAMYYCTREESANNGFAFWGQGTLVTVSA VL: DVLMTQTPLSLPVSLGDQASISCRSSQSILHSNGNTYLEWYLQKPGQSPNLLIYRVSNRFSGVPDRFSGSGSGTDFTLKISRVEAEDLGVYYCFQGAHVPFTFGSGTKLEIKR ? 0.208
